Measured values drawn from ChEMBL document CHEMBL3994564 for this set.

- System: Pseudomonas aeruginosa
- method_summary: Antibacterial activity against Pseudomonas aeruginosa ATCC 27853 after 24 hrs by MTT assay
- Assay type: functional
- run_parameters: ATCC 27853, 24 h
Listing: MIC of selected compounds

Answered examples (3):
[
  {
    "structure_as_smiles": "O=C(N/N=C/c1ccccc1Br)c1ccc2c(c1)OCCCO2",
    "MIC": "25 µg/mL"
  },
  {
    "structure_as_smiles": "COc1cc(/C=N/NC(=O)c2ccc3c(c2)OCCCO3)cc(OC)c1OC",
    "MIC": "3.13 µg/mL"
  },
  {
    "structure_as_smiles": "COc1cc(/C=N/NC(=O)c2ccc3c(c2)OCCCO3)cc(OC)c1O",
    "MIC": "6.25 µg/mL"
  }
]

Determine from records and report MIC for "O=C(N/N=C/c1ccc(O)c(O)c1)c1ccc2c(c1)OCCCO2" 12.5 µg/mL

Using the record for "O=C(N/N=C/c1cccs1)c1ccc2c(c1)OCCCO2" , state its measured MIC. > 100 µg/mL
